Attribution: patent US20140242080A1

Target: T1, cynomolgus MCSP D3 (cynomolgus, UniProt Q6UVK1 1582-2224 (human entry), limits assumed)
T1 construct: also called Cyno MCSP; cynomolgus homologue
T1 chain: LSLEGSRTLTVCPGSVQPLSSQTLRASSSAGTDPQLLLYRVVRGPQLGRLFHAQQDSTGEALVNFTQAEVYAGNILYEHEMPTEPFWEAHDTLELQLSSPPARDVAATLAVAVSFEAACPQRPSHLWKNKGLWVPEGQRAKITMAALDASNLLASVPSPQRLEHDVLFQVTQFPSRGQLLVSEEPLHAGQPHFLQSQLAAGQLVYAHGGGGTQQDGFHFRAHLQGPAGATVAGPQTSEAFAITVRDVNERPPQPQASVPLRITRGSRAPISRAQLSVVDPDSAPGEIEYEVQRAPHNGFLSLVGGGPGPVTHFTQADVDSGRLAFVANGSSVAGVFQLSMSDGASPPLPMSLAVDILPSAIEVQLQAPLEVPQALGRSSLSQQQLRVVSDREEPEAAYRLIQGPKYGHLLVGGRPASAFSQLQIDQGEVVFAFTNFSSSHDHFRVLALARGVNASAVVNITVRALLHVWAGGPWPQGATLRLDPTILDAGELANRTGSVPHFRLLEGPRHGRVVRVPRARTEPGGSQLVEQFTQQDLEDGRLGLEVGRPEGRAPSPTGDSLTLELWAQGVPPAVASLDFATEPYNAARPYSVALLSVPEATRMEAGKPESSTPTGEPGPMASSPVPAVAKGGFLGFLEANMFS
Assay: ratio of ProteOn IgG KD, parent M4-3/ML2 against variant
Value type: Fold increase over parent (fold)
Please give a number only; it is taken to be in fold.

Worked examples, 4 binders total:
• M4-3(B8)/ML2 IgG (antibody, V domains shown, Human IgG1) VH: QVQLQESGPGLVKPSQTLSLTCTVSGGSITSGYYWNWIRQHPGKGLEWIGYITFDGRNNYNPSLKSRVTISRDTSKNQFSLKLSSVTAADTAVYYCADFDYWGQGTLVTVSS VL: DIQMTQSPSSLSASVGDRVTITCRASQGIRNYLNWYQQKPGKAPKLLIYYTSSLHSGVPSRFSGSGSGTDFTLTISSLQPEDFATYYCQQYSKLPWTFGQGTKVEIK = 2
• M4-3(C1)/ML2 IgG (antibody, V domains shown, Human IgG1; copies: 2 + 2) VH: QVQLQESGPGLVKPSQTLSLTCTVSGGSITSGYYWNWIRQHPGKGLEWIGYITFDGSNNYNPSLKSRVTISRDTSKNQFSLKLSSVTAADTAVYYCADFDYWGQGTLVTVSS VL: DIQMTQSPSSLSASVGDRVTITCRASQGIRNYLNWYQQKPGKAPKLLIYYTSSLHSGVPSRFSGSGSGTDFTLTISSLQPEDFATYYCQQYSKLPWTFGQGTKVEIKR = 2.5
• M4-3(B7)/ML2 IgG (antibody, V domains shown, Human IgG1) VH: QVQLQESGPGLVKPSQTLSLTCTVSGGSITSGYYWNWIRQHPGKGLEWIGYITFDGINNYNPSLKSRVTISRDTSKNQFSLKLSSVTAADTAVYYCADFDYWGQGTLVTVSS VL: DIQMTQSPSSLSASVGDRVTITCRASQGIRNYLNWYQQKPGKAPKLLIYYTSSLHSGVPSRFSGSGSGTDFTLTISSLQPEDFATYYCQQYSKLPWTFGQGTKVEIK = 2.9
• M4-3(C1)/ML2(C5) IgG (antibody, V domains shown, Human IgG1) VH: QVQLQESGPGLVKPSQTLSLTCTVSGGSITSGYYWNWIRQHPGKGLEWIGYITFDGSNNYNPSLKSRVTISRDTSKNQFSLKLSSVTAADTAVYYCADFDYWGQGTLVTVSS VL: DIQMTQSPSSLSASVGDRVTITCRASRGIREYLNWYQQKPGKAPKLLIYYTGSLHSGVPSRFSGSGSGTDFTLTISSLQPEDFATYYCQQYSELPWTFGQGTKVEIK = 6.7

M4-3/ML2(E10) IgG (antibody, V domains shown, Human IgG1) VH: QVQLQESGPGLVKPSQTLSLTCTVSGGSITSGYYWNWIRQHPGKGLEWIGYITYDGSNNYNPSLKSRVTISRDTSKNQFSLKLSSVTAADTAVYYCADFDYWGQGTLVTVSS VL: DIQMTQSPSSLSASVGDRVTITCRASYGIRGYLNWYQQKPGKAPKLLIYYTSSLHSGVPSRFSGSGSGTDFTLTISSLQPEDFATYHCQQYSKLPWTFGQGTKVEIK yielded Fold increase over parent of 1
